# pIC50 per record follows
biological target: MCL1/Bim (Homo sapiens (Human)); test: MCL1/Bim Binding AlphaLISA Assay; conditions: recombinant human 6xHis-MCL1 (171-327), biotinylated Bim peptide (51-76)
Sequence (Q07820 171-327): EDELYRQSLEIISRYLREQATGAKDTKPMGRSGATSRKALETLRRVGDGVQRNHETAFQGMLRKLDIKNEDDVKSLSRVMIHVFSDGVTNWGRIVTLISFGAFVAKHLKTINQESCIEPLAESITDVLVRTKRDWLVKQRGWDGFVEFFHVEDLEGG
pIC50: −log10 of the molar value.
READOUT_LABEL: pIC50

INSERT INTO measurements (molecule, val) VALUES
  ('COc1nn(C)cc1C(=O)N[S@@]1(=O)=NC(=O)c2ccc3c(c2)N(C[C@@H]2CC[C@H]2[C@@H](OCCN2CC(C(F)F)C2)/C=C/C[C@H](C)C1)C[C@@]1(CCCc2cc(Cl)ccc21)CO3', 10.16),
  ('COc1nn(C)cc1C(=O)N[S@@]1(=O)=NC(=O)c2ccc3c(c2)N(C[C@@H]2CC[C@H]2[C@@H](OC)[C@H]2CN(C)[C@H]4CO[C@H](C(C)C1)[C@@H]24)C[C@@]1(CCCc2cc(Cl)ccc21)CO3 (stereo partly drawn)', 10.16),
  ('CO[C@H]1/C=C/[C@H](OC)[C@H](C)C[S@@](=O)(NC(=O)c2cn(C)nc2OCCN2CCOCC2)=NC(=O)c2ccc3c(c2)N(C[C@@H]2CC[C@H]21)C[C@@]1(CCCc2cc(Cl)ccc21)CO3', 9.70);

====

target: MCL1/Bim (Homo sapiens (Human)); experiment: MCL1/Bim Binding AlphaLISA Assay; details: recombinant human 6xHis-MCL1 (171-327), biotinylated Bim peptide (51-76)
In this section we review reported IC50 values for a set of molecules.
READOUT_LABEL: IC50 (nM)

INSERT INTO assay_data (molecule, tested_system, readout_label, val) VALUES
  ('CC[C@@H]1CC/C=C/[C@H](OC)[C@@H]2CC[C@H]2CN2C[C@@]3(CCCc4cc(Cl)ccc43)COc3ccc(cc32)C(=O)N=S1(=O)NC(=O)COC1CCOCC1 (stereo partly drawn)', 'MCL1/Bim (Homo sapiens (Human))', 'IC50', 0.101),
  ('COc1nn(C)cc1C(=O)N[S@@]1(=O)=NC(=O)c2ccc3c(c2)N(C[C@@H]2CC[C@H]2[C@@H](OC(=O)c2cn(C)nc2OC)CC[C@H](O)[C@H](C)[C@H]1C)C[C@@]1(CCCc2cc(Cl)ccc21)CO3', 'MCL1/Bim (Homo sapiens (Human))', 'IC50', 2.19),
  ('CO[C@H]1/C=C/C[C@H](C)C[S@@](=O)(NC(=O)c2cc(C(=O)N3CCOCC3)n(C)c2)=NC(=O)c2ccc3c(c2)N(C[C@@H]2CC[C@H]21)C[C@@]1(CCCc2cc(Cl)ccc21)CO3', 'MCL1/Bim (Homo sapiens (Human))', 'IC50', 0.08),
  ('COc1nn(C)cc1C(=O)N[S@@]1(=O)=NC(=O)c2ccc3c(c2)N(C[C@@H]2CC[C@H]2[C@H]2OCC[C@@H]2CC[C@H](C)C1)C[C@@]1(CCCc2cc(Cl)ccc21)CO3', 'MCL1/Bim (Homo sapiens (Human))', 'IC50', 0.096),
  ('CO[C@H]1/C=C/C[C@H](C)C[S@@](=O)(NC(=O)[C@H]2C[C@](C)(O)C2)=NC(=O)c2ccc3c(n2)N(C[C@@H]2CC[C@H]21)C[C@@]1(CCCc2cc(Cl)ccc21)CO3', 'MCL1/Bim (Homo sapiens (Human))', 'IC50', 0.07),
  ('CO[C@H]1/C=C/[C@H](OC)[C@H](C)C[S@@](=O)(Nc2ncnc3nn(C)cc23)=NC(=O)c2ccc3c(c2)N(C[C@@H]2CC[C@H]21)C[C@@]1(CCCc2cc(Cl)ccc21)CO3', 'MCL1/Bim (Homo sapiens (Human))', 'IC50', 0.06),
  ('COc1nn(C)cc1C(=O)N[S@@]1(=O)=NC(=O)c2ccc3c(c2)N(C[C@@H]2CC[C@H]2/C=C/[C@@H](O)[C@H](NC(C)=O)[C@H](C)C1)C[C@@]1(CCCc2cc(Cl)ccc21)CO3', 'MCL1/Bim (Homo sapiens (Human))', 'IC50', 0.035),
  ('COc1nn(C)cc1C(=O)N[S@@]1(=O)=NC(=O)c2ccc3c(c2)N(C[C@@H]2CC[C@H]2[C@](CN2CCN4CCOC[C@@H]4C2)(OC)/C=C/C[C@H](C)C1)C[C@@]1(CCCc2cc(Cl)ccc21)CO3', 'MCL1/Bim (Homo sapiens (Human))', 'IC50', 0.211),
  ('CO[C@H]1/C=C/C[C@H](C)[C@@H](C)[S@@](=O)(NC(=O)c2cc3n(c2)CCOC3)=NC(=O)c2ccc3c(n2)N(C[C@@H]2CC[C@H]21)C[C@@]1(CCCc2cc(Cl)ccc21)CO3', 'MCL1/Bim (Homo sapiens (Human))', 'IC50', 0.2),
  ('COc1nn(C)cc1C(=O)N[S@@]1(=O)=NC(=O)c2ccc3c(c2)N(C[C@@H]2CC[C@H]2[C@@H](OC)/C=C/[C@H](Oc2ccccn2)[C@H](C)C1)C[C@@]1(CCCc2cc(Cl)ccc21)CO3', 'MCL1/Bim (Homo sapiens (Human))', 'IC50', 0.905),
  ('CO[C@H]1/C=C/CCC[S@@](=O)(NC(=O)c2cnn(C)c2)=NC(=O)c2ccc3c(c2)N(C[C@@H]2CC[C@H]21)C[C@]1(CO3)SCCc2cc(Cl)ccc21', 'MCL1/Bim (Homo sapiens (Human))', 'IC50', 0.06),
  ('COc1nn(C)cc1C(=O)N[S@@]1(=O)=NC(=O)c2ccc3c(c2)N(C[C@@H]2CC[C@H]2[C@@H](OC)/C=C/[C@H](OCc2nccn2C)[C@H](C)C1)C[C@@]1(CCCc2cc(Cl)ccc21)CO3', 'MCL1/Bim (Homo sapiens (Human))', 'IC50', 0.1);
